- TARGET SYSTEM: P dimers of VA387 (GII.4) binding to saliva HBGAs (Norovirus GII.4 (Human calicivirus NLV/VA98387/1998))
- Sequence (Q913Z3 214-539): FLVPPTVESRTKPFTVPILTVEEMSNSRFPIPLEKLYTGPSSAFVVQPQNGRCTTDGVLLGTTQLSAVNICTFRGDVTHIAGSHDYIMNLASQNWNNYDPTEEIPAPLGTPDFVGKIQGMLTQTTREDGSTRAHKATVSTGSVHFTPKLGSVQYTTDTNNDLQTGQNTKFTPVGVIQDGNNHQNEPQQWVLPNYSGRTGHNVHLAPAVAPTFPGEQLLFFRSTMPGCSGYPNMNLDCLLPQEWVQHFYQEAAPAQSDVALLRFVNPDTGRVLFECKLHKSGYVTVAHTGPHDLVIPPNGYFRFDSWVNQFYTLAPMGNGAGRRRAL
- TEST DETAILS: Saliva-based NoV/HBGA blocking assay
- Set-up: species or system Norovirus VA387 (GII.4)
- TEST CONDITIONS: IC50 Saliva B, blocking assay, type B saliva as HBGA source; mean ± standard deviation
Listing of entries alongside the reported pIC50.
Value format note: pIC50 is -log10 of concentration (mol/L); just state the number.

Would you please look over these solved cases?
COMPOUND	pIC50
CC(=O)C1CCC2C3CC[C@H]4CC(O)CCC4(C)C3CCC12C (some centres unmarked)	5.53
C[C@]12CC[C@H](O)C=C1CC[C@@H]1C2CC[C@@]2(C)C1CC[C@@]21CCC(=O)O1 (some centres unmarked) [Compound 11]	4.63
CC(=O)C1=CCC2[C@@H]3CC=C4C[C@H](O)CC[C@]4(C)C3CC[C@]12C (some centres unmarked)	4.60
C[C@]12CC[C@H]3[C@@H](CCC4=C/C(=N/OCC(=O)NCC(=O)O)CC[C@@]43C)[C@@H]1CC[C@H]2O	4.73

Incoming: // pIC50 lookup, key: C[C@]12CC[C@H](O)C=C1CC[C@@H]1C2CC[C@@]2(C)C1CC[C@@]21CCC(=O)O1 (some centres unmarked) [Compound 15]
Outgoing: 4.53

---

The following compounds are shown together with reported pIC50 values.
- TARGET SYSTEM: P dimers of VA387 (GII.4) binding to saliva HBGAs (Norovirus GII.4 (Human calicivirus NLV/VA98387/1998))
- TEST DETAILS: Saliva-based NoV/HBGA blocking assay
- Set-up: species or system Norovirus VA387 (GII.4)
- TEST CONDITIONS: blocking assay, type B saliva as HBGA source; mean ± standard deviation; read-out: IC50 Saliva B
Would you please state pIC50, meaning minus log10 of the concentration in mol/L, as a bare number?

// below: answered compounds
COMPOUND	pIC50
O=C1CC(c2ccc([N+](=O)[O-])cc2)c2ccc3ccccc3c2N1 (centres unmarked)	4.58
C[C@]12CCC3C(CC[C@H]4CC=CC[C@]34C)C1CC/C2=N/NC(N)=S (some centres unmarked)	5.05
O=C(O)c1ccc(C2Nc3c(F)cccc3C3C=CCC32)cc1 (centres unmarked)	4.40
Nc1ccc2c(c1)C1C=CCC1C(c1ccc([N+](=O)[O-])cc1)N2 (centres unmarked)	4.89

Incoming: Suppose we examine the compound Cc1ccc(C2CC(=O)Nc3c2ccc2ccccc32)cc1[N+](=O)[O-] (centres unmarked) ; what pIC50 value has been reported?
Outgoing: 4.47

---

- TEST DETAILS: MTS cytotoxicity assay
- Type: cell-based, human; rhesus monkey
- TEST CONDITIONS: HeLa and LLC-MK2 cells, 3 days incubation; cell line per value not stated
MEASURE NAME: CC50 at 3 days (µM)
Output spec: scalar in µM, unitless text.

Incoming: Need CC50 at 3 days, item CC(=O)C1CCC2C3CC[C@H]4CC(O)CCC4(C)C3CCC12C (stereo partly shown)
Outgoing: 267

---

- TARGET SYSTEM: P dimers of VA387 (GII.4) binding to saliva HBGAs (Norovirus GII.4 (Human calicivirus NLV/VA98387/1998))
- TEST DETAILS: Saliva-based NoV/HBGA blocking assay
- Parameters: species or system Norovirus VA387 (GII.4)
- TEST CONDITIONS: blocking assay, type A saliva as HBGA source; mean ± standard deviation; read-out: IC50 Saliva A
MEASURE NAME: IC50
# do not omit the unit; it follows the number

Examples from the recorded data:
COMPOUND	IC50
C[C@]12CCC3C(CC[C@H]4CC=CC[C@]34C)C1CC/C2=N/NC(N)=S (stereo partly shown)	8.7 µM
C/C(=N/O)C1=CCC2C3CC[C@H]4C/C(=N\O)CC[C@]4(C)C3CC[C@]12C (stereo partly shown)	2.38 µM
CC1CCc2c(sc3ncn(C(C)C(=O)N/N=C/c4c(O)ccc5ccccc45)c(=O)c23)C1 (stereo not shown)	17 µM

Switching to the query record.
Incoming: Find the recorded IC50 belonging to O=C1CC(c2ccc([N+](=O)[O-])cc2)c2ccc3ccccc3c2N1 (stereo not shown) and report it.
Outgoing: 24.5 µM
